Target: TGF-β1 (Roche)
Sequence (P01137 279-390): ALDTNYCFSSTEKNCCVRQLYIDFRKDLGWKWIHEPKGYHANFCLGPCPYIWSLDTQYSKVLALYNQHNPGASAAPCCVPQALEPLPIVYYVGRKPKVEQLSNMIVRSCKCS
Assay: cell-based or functional assay
observable: % Inhibition (Mv-1-Lu cell line growth reestablishment, 3H-thymidine) (%)
Answers are plain numbers, in %.

Previously resolved entries follow.
[
  {
    "binder": "HVRLHHYLRHRSLPN (15-aa peptide) [peptide identified by SEQ ID NO: 21]",
    "numeric value": 13.4
  },
  {
    "binder": "FVWVRFHRLPRQIYT (15-aa peptide) [peptide identified by SEQ ID NO: 10]",
    "numeric value": -4.58
  },
  {
    "binder": "GWITFHRRHHDRVLS (15-aa peptide) [peptide identified by SEQ ID NO: 15]",
    "numeric value": 13.4
  }
]

response.value for DRRIFWWSNRSAPGA (15-aa peptide) [peptide identified by SEQ ID NO: 2] (field: % Inhibition (Mv-1-Lu cell line growth reestablishment, 3H-thymidine)) = -0.96
